Ref: ChEMBL document CHEMBL1145266

Data export: Ki values recorded with Tryptase beta-1 (Homo sapiens, UniProt Q15661).
Sequence (Q15661 whole entry): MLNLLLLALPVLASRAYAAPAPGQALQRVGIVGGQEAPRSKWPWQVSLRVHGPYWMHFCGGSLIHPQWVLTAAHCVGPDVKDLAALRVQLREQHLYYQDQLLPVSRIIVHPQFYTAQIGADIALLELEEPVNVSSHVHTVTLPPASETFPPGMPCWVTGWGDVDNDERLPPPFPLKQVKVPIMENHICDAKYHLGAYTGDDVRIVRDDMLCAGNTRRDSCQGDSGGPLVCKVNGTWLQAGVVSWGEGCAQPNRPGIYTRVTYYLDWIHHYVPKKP
# unit: nM | format: bare number

Ask: // map `CCn1cc(C(=O)N2CCC(c3cccc(CN)c3)CC2)c2ccccc21.O=C(O)C(F)(F)F` to recorded Ki (system: Tryptase beta-1 (Homo sapiens, UniProt Q15661))
Result: 124

====

Recorded bioavailability by entry
test: Bioavailability in rat using combiPK (dose 1 mg/kg i.v.); format: ADME, organism-based; conditions: in vivo, iv
# unit: % | format: bare number

>>> endpoint_result("NCc1cccc(C2CCN(C(=O)c3cn(S(=O)(=O)c4ccccc4)c4ccccc34)CC2)c1.O=C(O)C(F)(F)F")
17

# context switch: different compound, same bioavailability
Ask: State the recorded bioavailability for this entry: `NCc1cccc(C2CCN(C(=O)c3c[nH]c4ccccc34)CC2)c1.O=C(O)C(F)(F)F`
Result: 22

====

biological target: Tryptase beta-1 (Homo sapiens, UniProt Q15661)
Endpoint Name: pKi
Keep it numeric: pKi is minus log10 of the concentration in mol/L.

Examples with answers:
>>> endpoint_result("CCCCn1cc(C(=O)N2CCC(c3cccc(CN)c3)CC2)c2cccc(C)c21.O=C(O)C(F)(F)F")
7.17
>>> endpoint_result("NCc1cccc(C2CCN(C(=O)c3c[nH]c4ccccc34)CC2)c1.O=C(O)C(F)(F)F")
6.54
>>> endpoint_result("CCCCn1cc(C(=O)N2CCC(c3cccc(CN)c3)CC2)c2ccccc21.O=C(O)C(F)(F)F")
7.31
>>> endpoint_result("NCc1cccc(C2CCN(C(=O)c3cn(C(=O)c4cccs4)c4ccccc34)CC2)c1")
6.61
>>> endpoint_result("NCc1cccc(C2CCN(C(=O)c3cn(S(=O)(=O)c4ccccc4)c4ccccc34)CC2)c1.O=C(O)C(F)(F)F")
6.89
>>> endpoint_result("Cc1ccc2[nH]cc(C(=O)N3CCC(c4cccc(CN)c4)CC3)c2c1")
7.00

Ask: // map `CCCn1cc(C(=O)N2CCC(c3cccc(CN)c3)CC2)c2cccc(C)c21` to recorded pKi (system: Tryptase beta-1 (Homo sapiens, UniProt Q15661))
Result: 7.39

Ask: // map `Cc1cccc2c(C(=O)N3CCC(c4cccc(CN)c4)CC3)c[nH]c12.O=C(O)C(F)(F)F` to recorded pKi (system: Tryptase beta-1 (Homo sapiens, UniProt Q15661))
Result: 7.21

Ask: // map `CC(=O)n1cc(C(=O)N2CCC(c3cccc(CN)c3)CC2)c2ccccc21` to recorded pKi (system: Tryptase beta-1 (Homo sapiens, UniProt Q15661))
Result: 6.62

Ask: // map `COCCn1cc(C(=O)N2CCC(c3cccc(CN)c3)CC2)c2cccc(C)c21` to recorded pKi (system: Tryptase beta-1 (Homo sapiens, UniProt Q15661))
Result: 7.49

====

Data export: Ki values recorded with Tryptase beta-1 (Homo sapiens, UniProt Q15661).
# unit: nM | format: bare number

>>> endpoint_result("NCc1cccc(C2CCN(C(=O)c3cn(CC4CCCCC4)c4ccccc34)CC2)c1")
497
>>> endpoint_result("NCc1cccc(C2CCN(C(=O)c3cn(-c4nccs4)c4ccccc34)CC2)c1")
373
>>> endpoint_result("NCc1cccc(C2CCN(C(=O)c3c[nH]c4c(F)cccc34)CC2)c1")
368
>>> endpoint_result("NCc1cccc(C2CCN(C(=O)c3cn(CC4CC4)c4ccccc34)CC2)c1")
141

# context switch: different compound, same Ki
Ask: // map `CS(=O)(=O)n1cc(C(=O)N2CCC(c3cccc(CN)c3)CC2)c2ccccc21` to recorded Ki (system: Tryptase beta-1 (Homo sapiens, UniProt Q15661))
Result: 162
